Test system: gastric cancer cells NUGC-3
Experiment summary: Anticancer activity against cultured gastric cancer cells (MTT assay)
Format: cell-based
Particulars: Homo sapiens, NUGC-3, 48 hours, mixture of S- and R-configurations
Parameter: IC50 (µg/mL)

* CCCCCCCCCCCCCCCCCCCCCCCCCC(=O)OCC(O)CO[C@H]1O[C@H](CS(=O)(=O)O)[C@@H](O)[C@H](O)[C@H]1O (mixture of isomers) | 20

a = CCCCCCCCCCCCCC(=O)OCC(CO[C@H]1O[C@H](CS(=O)(=O)O)[C@@H](O)[C@H](O)[C@H]1O)OC(=O)CCCCCCCCCCCCC (mixture of isomers)
b = CCCCCCCCCCCCCCCC(=O)OCC(O)CO[C@@H]1O[C@H](CS(=O)(=O)O)[C@@H](O)[C@H](O)[C@H]1O (mixture of isomers)
c = CCCCCCCCCCCCCCCCCCCCCCCC(=O)OCC(O)CO[C@H]1O[C@H](CS(=O)(=O)O)[C@@H](O)[C@H](O)[C@H]1O (mixture of isomers)
Given 3 molecules, produce a descending ranking by IC50. Output spec: a listing of the labels in the requested order.
b, a, c

a = CCCCCCCCCCCCCCCCCC(=O)OCC(O)CO[C@H]1O[C@H](CS(=O)(=O)O)[C@@H](O)[C@H](O)[C@H]1O (mixture of isomers)
b = CCCCCCCCCCCCCCCCCCCC(=O)OCC(O)CO[C@H]1O[C@H](CS(=O)(=O)O)[C@@H](O)[C@H](O)[C@H]1O (mixture of isomers)
Hi there! Just curious which has the higher IC50 between a and b . The response must carry the label of the picked entry.
a
(a: 37.5 µg/mL, b: 24 µg/mL)

I = CCCCCCCCCCCCCC(=O)OCC(O)CO[C@H]1O[C@H](CS(=O)(=O)O)[C@@H](O)[C@H](O)[C@H]1O (mixture of isomers)
II = CCCCCCCCCCCCCCCCCCCCCC(=O)OCC(O)CO[C@H]1O[C@H](CS(=O)(=O)O)[C@@H](O)[C@H](O)[C@H]1O (mixture of isomers)
Between I and II , whose recorded IC50 is greater? Selection: enter the item's label.
I
